- target_or_test_system: human β3-AR (Homo sapiens)
- Construct: expressed in transfected cells; host or cells: CHO (Chinese hamster ovary) cells, stably transfected
- experimental_protocol: cAMP functional agonist assay (LANCE TR-FRET) in CHO cells expressing cloned human β3-AR
- Format: cell-based
- protocol_conditions: CHO cells stably expressing cloned human β3-adrenoceptor; cAMP release; read-out: Human β3-AR Agonism EC50
pEC50: −log10 of the molar value.
metric_name: pEC50

- compound: "COc1ccc([C@@H](O)[C@H]2CC[C@@H](Cc3ccc(C(=O)N(C)Cc4cccnc4)cc3)N2)cn1"
  metric_name: "pEC50"
  endpoint_value: 7.62
- compound: "Cc1cc(CN(C)C(=O)c2ccc(C[C@@H]3CC[C@H]([C@H](O)c4ccc(F)nc4)N3)cc2)n[nH]1"
  metric_name: "pEC50"
  endpoint_value: 7.11
- compound: "CN(Cc1cc(C2CC2)[nH]n1)C(=O)c1ccc(C[C@@H]2CC[C@H]([C@H](O)c3ccccc3)N2)cc1"
  metric_name: "pEC50"
  endpoint_value: 7.41
- compound: "Cc1cc(CN(C)C(=O)c2ccc(C[C@@H]3CC[C@H]([C@H](O)c4ccc(OC(F)F)cc4)N3)cc2)n[nH]1"
  metric_name: "pEC50"
  endpoint_value: 7.05
- compound: "Cc1nnc2ccc(CN(C)C(=O)c3ccc(C[C@@H]4CC[C@H]([C@H](O)c5ccccc5)N4)cc3)cn12"
  metric_name: "pEC50"
  endpoint_value: 5.79
- compound: "CN(Cc1cccnc1)C(=O)c1ccc(C[C@@H]2CC[C@H]([C@H](O)c3ccccc3)N2)cc1"
  metric_name: "pEC50"
  endpoint_value: 7.39
- compound: "COC(CN(C)C(=O)c1ccc(C[C@@H]2CC[C@H]([C@H](O)c3ccc(Cl)nc3)N2)cc1)c1cccc(=O)[nH]1 (stereo partly shown)"
  metric_name: "pEC50"
  endpoint_value: 6.69

###

Listed compounds paired with reported Fold drop in potency vs. 2-chloropyridine analog
- target_or_test_system: human β3-AR (Homo sapiens, UniProt P13945)
- Construct: expressed in transfected cells; host or cells: CHO (Chinese hamster ovary) cells, stably transfected
- Sequence (P13945 whole entry): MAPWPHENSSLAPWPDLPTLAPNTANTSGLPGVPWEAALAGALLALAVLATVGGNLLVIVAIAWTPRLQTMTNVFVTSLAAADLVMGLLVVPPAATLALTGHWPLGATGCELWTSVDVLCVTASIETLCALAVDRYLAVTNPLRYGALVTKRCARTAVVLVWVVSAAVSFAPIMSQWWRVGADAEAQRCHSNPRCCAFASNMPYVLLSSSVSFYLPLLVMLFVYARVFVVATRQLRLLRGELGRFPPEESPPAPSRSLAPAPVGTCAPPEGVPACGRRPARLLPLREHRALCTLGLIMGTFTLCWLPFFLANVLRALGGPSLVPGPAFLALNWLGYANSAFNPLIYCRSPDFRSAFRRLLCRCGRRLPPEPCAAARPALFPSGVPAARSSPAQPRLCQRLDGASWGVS
- experimental_protocol: cAMP functional agonist assay (LANCE TR-FRET) in CHO cells expressing cloned human β3-AR
- Assay type: cell-based
- protocol_conditions: EC50 of comparative example divided by EC50 of corresponding 2-chloropyridine compound
metric_name: Fold drop in potency vs. 2-chloropyridine analog (fold)

- smiles_data: "CN(Cc1cccnc1)C(=O)c1ccc(C[C@@H]2CC[C@H]([C@H](O)c3ccc(F)cc3)N2)cc1"
  result_operator: "="
  endpoint_value: 2.9
- smiles_data: "CN(Cc1n[nH]c2c1CCCC2)C(=O)c1ccc(C[C@@H]2CC[C@H]([C@H](O)c3cccnc3)N2)cc1"
  result_operator: "="
  endpoint_value: 19.5
- smiles_data: "Cc1cc(CN(C)C(=O)c2ccc(C[C@@H]3CC[C@H]([C@H](O)c4cncc(F)c4)N3)cc2)[nH]n1"
  result_operator: "="
  endpoint_value: 8.3
- smiles_data: "CN(Cc1cccnc1)C(=O)c1ccc(C[C@@H]2CC[C@H]([C@H](O)c3ccc(NC4CC4)nc3)N2)cc1"
  result_operator: ">"
  endpoint_value: 2300

###

Listed molecules paired with reported Human β3-AR Agonist Activity (%)
- target_or_test_system: human β3-AR (Homo sapiens, UniProt P13945)
- Construct: expressed in transfected cells; host or cells: CHO (Chinese hamster ovary) cells, stably transfected
- experimental_protocol: cAMP functional agonist assay (LANCE TR-FRET) in CHO cells expressing cloned human β3-AR
- Format: cell-based
- protocol_conditions: percent maximum activation relative to isoproterenol

- smiles_data: "CN(Cc1ccnnc1)C(=O)c1ccc(C[C@@H]2CC[C@H]([C@H](O)c3ccc(Cl)nc3)N2)cc1"
  target_or_test_system: "human β3-AR (Homo sapiens, UniProt P13945)"
  Human β3-AR Agonist Activity (%): 94
- smiles_data: "CN(Cc1ccc(Cl)nc1)C(=O)c1ccc(C[C@@H]2CC[C@H]([C@H](O)c3ccc(Cl)nc3)N2)cc1"
  target_or_test_system: "human β3-AR (Homo sapiens, UniProt P13945)"
  Human β3-AR Agonist Activity (%): 99
- smiles_data: "CN(Cc1nc2ccccc2c(=O)n1C)C(=O)c1ccc(C[C@@H]2CC[C@H]([C@H](O)c3ccccc3)N2)cc1"
  target_or_test_system: "human β3-AR (Homo sapiens, UniProt P13945)"
  Human β3-AR Agonist Activity (%): 81
- smiles_data: "Cc1nnc(-c2cncc(CN(C)C(=O)c3ccc(C[C@@H]4CC[C@H]([C@H](O)c5ccc(Cl)nc5)N4)cc3)c2)o1"
  target_or_test_system: "human β3-AR (Homo sapiens, UniProt P13945)"
  Human β3-AR Agonist Activity (%): 92
- smiles_data: "COCCN(C)C(=O)c1ccc(C[C@@H]2CC[C@H]([C@H](O)c3ccc(Cl)nc3)N2)cc1"
  target_or_test_system: "human β3-AR (Homo sapiens, UniProt P13945)"
  Human β3-AR Agonist Activity (%): 100
- smiles_data: "COC(=O)c1cncc(CN(C)C(=O)c2ccc(C[C@@H]3CC[C@H]([C@H](O)c4ccccc4)N3)cc2)c1"
  target_or_test_system: "human β3-AR (Homo sapiens, UniProt P13945)"
  Human β3-AR Agonist Activity (%): 101
- smiles_data: "CN(Cc1cccnc1)C(=O)c1ccc(C[C@@H]2CC[C@H]([C@H](O)c3cccc(F)c3)N2)cc1"
  target_or_test_system: "human β3-AR (Homo sapiens, UniProt P13945)"
  Human β3-AR Agonist Activity (%): 100
- smiles_data: "CN(Cc1cccnc1)C(=O)c1ccc(C[C@@H]2CC[C@H]([C@H](O)c3ccc(N)nc3)N2)cc1"
  target_or_test_system: "human β3-AR (Homo sapiens, UniProt P13945)"
  Human β3-AR Agonist Activity (%): 97

Where these numbers come from: patent US20160235727A1
